Where these numbers come from: paper PMC7083565

target.entity: UGT1A9 (Homo sapiens)
Construct: purchased BD Biosciences; host or cells: baculovirus-infected insect cells
Sequence (O60656 26-530): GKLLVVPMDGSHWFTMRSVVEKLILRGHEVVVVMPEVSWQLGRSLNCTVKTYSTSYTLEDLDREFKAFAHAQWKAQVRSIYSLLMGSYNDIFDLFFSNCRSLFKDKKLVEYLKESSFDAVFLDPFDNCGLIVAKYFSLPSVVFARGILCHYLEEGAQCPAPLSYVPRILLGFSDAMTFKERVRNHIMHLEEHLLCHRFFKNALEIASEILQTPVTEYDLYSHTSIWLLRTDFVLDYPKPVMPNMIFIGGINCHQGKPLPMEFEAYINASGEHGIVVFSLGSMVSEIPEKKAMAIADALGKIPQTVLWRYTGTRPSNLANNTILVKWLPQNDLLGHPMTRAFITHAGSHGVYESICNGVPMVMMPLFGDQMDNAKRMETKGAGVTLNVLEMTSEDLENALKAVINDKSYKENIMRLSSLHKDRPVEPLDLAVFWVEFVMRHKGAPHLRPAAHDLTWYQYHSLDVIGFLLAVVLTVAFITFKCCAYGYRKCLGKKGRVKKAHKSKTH
assay: Ataluren glucuronidation kinetics, recombinant human UGT1A9
Type: in vitro ADME
condition: human, recombinant human UGT1A9, pH 7.5, UGT1A9, 1% BSA; read-out: CLint,u,UGT
Procedure: Ataluren at 0.5, 2.5, 12.5, 25, 50, 100, 200, and 400 µmol/L, was incubated (n = 3) at 37°C with recombinant human UGT1A9 and with pooled microsomes from human liver, kidney, and intestine (0.025 mg protein/mL, preactivated with alamethicin at 20 µg/mL) in Tris‐HCl buffer (0.1 mol/L, pH 7.5), in the presence of 1 mmol/L EDTA, 5 mmol/L MgCl2, with or without 0.5%, 1%, or 2% BSA. […] The filtrates were used for LC‐MS/MS analysis to quantify the formation of ataluren‐O‐1β‐acyl glucuronide. […]
quantity.measured: microsomal CLint (µL/min/mg)
The reply should be a number in µL/min/mg, with the unit left off.

[ask] Entry O=C(O)c1cccc(-c2noc(-c3ccccc3F)n2)c1 has what microsomal CLint?
[reply] 334
